# assayInfo: Cmax in Sprague-Dawley rat at 2 mg/kg, iv measured upto 24 hrs by LC-MS/MS analysis
# Type: ADME, organism-based
# measurementConditions: in vivo
testReadout: Cmax (ng/mL)
Could you give me the number in ng/mL? Just the number is fine.

**Q:** Endpoint output: Cmax of NCC(=O)Nc1cc(Cl)cc(Cl)c1OCc1ccc(C(=O)Nc2ccccc2N)cc1 . Value?
**A:** 2510

###

# assayInfo: Solubility of the compound at pH 7.4
# Format: physicochemical
# measurementConditions: buffer
testReadout: solubility (µg/mL)
Reply numerically in µg/mL, unit not repeated.

**Q:** I have this compound here, NCC(=O)Nc1cc(Cl)cc(Cl)c1OCc1ccc(C(=O)Nc2ccccc2N)cc1 , and I need its recorded solubility.
**A:** 23
